- Tgt: YTHDF1 (361-559) (Homo sapiens)
- Construct: GST (N, cleaved yes); made in house; host or cells: E. coli BL21 (DE3)
- Sequence (Q9BYJ9 with tags, fused parts or gaps): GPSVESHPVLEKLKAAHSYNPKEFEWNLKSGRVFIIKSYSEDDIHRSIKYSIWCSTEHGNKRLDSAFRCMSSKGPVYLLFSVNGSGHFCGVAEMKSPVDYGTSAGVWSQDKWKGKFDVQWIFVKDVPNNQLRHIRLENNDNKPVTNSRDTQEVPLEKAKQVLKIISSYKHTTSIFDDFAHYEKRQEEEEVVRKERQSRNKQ
- Test name: Isothermal Titration Calorimetry (ITC)
- Assay type: binding
- Protocol conditions: 25° C., 50 μM YTHDF1 titrated with 1 mM SAA
- Description: Purified YTHDF1 (361-559) was dialyzed at 4° C. overnight in dialysis buffer (20 mM Hepes (pH 7.4) and 200 mM NaCl). Then dialyzed protein was diluted to 50 μM with dialysis buffer. […] Isothermal titration calorimetry (ITC) was conducted on a Microcal ITC 200 isothermal titration calorimeter (GE Healthcare) at 25° C. […] The experimental data was analyzed via Microcal ORIGIN (v7.0) software (Microcal Software). Then, the binding affinity between SAA and YTHDF1 was evaluated. […]
Reported endpoint: Kd (µM)

Test smiles: O=C(/C=C/c1ccc(O)c(O)c1/C=C/c1ccc(O)c(O)c1)O[C@H](Cc1ccc(O)c(O)c1)C(=O)O
Tgt: YTHDF1 (361-559) (Homo sapiens)
Recorded measurement: 5.71
